Parameter MFI at 33.3 nM: see the listing below.
# Target: T1, human PD-L1, full-length, on CHO cells (human, UniProt Q9NZQ7 19-290)
# T1 construct: also called huPD-L1; CD274
# T1 sequence (Q9NZQ7 19-290): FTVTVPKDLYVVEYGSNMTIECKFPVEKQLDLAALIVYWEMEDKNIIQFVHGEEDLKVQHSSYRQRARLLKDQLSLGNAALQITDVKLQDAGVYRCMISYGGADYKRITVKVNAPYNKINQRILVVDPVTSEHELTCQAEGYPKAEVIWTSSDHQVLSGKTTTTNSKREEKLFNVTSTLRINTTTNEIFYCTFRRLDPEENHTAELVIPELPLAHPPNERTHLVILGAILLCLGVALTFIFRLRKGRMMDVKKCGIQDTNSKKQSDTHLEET
# Test Details: flow cytometry, CHO cells stably expressing PD-L1
Measured Attribute: MFI at 33.3 nM (MFI)

[
  {
    "Binder": "variant CD80 IgV-Fc E35D/D46V/M47L (Fc fusion, not shown: small tags and cut ends; a dimerising Fc or GST) VIHVTKEVKEVATLSCGHNVSVEELAQTRIYWQKDKKMVLTMMSGVLNIWPEYKNRTIFDITNNLSIVILALRPSDEGTYECVVLKYEKDAFKREHLAEVTLSVKAD",
    "Result": 7990
  },
  {
    "Binder": "variant CD80 IgV-Fc E35D/K89N (Fc fusion, not shown: small tags and cut ends; a dimerising Fc or GST) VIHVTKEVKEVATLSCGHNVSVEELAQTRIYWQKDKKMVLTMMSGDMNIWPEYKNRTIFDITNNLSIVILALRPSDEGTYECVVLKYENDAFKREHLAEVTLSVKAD",
    "Result": 757
  },
  {
    "Binder": "variant CD80 IgV-Fc M47L/V68M/L85Q (Fc fusion, not shown: small tags and cut ends; a dimerising Fc or GST) VIHVTKEVKEVATLSCGHNVSVEELAQTRIYWQKEKKMVLTMMSGDLNIWPEYKNRTIFDITNNLSIMILALRPSDEGTYECVVQKYEKDAFKREHLAEVTLSVKAD",
    "Result": 4040
  },
  {
    "Binder": "variant CD80 IgV-Fc E35D/V68M/L85Q (Fc fusion, not shown: small tags and cut ends; a dimerising Fc or GST) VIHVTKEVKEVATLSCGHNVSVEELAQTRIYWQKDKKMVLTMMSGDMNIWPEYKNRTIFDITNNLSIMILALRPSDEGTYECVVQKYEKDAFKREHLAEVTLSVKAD",
    "Result": 5970
  },
  {
    "Binder": "variant CD80 IgV-Fc D46V/M47L/V68M (Fc fusion, not shown: small tags and cut ends; a dimerising Fc or GST) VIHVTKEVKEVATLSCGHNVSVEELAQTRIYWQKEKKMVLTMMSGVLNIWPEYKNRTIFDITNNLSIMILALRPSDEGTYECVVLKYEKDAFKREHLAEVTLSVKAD",
    "Result": 28000
  }
]

Where these numbers come from: patent US20210130436A1
